target: GST-tagged truncated human mutant G2019S LRRK2 (Homo sapiens, UniProt Q5S007, G2019S); construct: GST-tagged truncated human mutant G2019S LRRK2; purchased Life Technologies Corporation (Carlsbad, CA); test: LRRK2 G2019S Km ATP LanthaScreen assay; assay type: biochemical; conditions: 134 μM ATP (Km ATP), LRRKtide substrate, mean of several tests, read-out: LRRK2 pIC50 (converted)
Sequence (Q5S007 970-2527 G2019S limits assumed): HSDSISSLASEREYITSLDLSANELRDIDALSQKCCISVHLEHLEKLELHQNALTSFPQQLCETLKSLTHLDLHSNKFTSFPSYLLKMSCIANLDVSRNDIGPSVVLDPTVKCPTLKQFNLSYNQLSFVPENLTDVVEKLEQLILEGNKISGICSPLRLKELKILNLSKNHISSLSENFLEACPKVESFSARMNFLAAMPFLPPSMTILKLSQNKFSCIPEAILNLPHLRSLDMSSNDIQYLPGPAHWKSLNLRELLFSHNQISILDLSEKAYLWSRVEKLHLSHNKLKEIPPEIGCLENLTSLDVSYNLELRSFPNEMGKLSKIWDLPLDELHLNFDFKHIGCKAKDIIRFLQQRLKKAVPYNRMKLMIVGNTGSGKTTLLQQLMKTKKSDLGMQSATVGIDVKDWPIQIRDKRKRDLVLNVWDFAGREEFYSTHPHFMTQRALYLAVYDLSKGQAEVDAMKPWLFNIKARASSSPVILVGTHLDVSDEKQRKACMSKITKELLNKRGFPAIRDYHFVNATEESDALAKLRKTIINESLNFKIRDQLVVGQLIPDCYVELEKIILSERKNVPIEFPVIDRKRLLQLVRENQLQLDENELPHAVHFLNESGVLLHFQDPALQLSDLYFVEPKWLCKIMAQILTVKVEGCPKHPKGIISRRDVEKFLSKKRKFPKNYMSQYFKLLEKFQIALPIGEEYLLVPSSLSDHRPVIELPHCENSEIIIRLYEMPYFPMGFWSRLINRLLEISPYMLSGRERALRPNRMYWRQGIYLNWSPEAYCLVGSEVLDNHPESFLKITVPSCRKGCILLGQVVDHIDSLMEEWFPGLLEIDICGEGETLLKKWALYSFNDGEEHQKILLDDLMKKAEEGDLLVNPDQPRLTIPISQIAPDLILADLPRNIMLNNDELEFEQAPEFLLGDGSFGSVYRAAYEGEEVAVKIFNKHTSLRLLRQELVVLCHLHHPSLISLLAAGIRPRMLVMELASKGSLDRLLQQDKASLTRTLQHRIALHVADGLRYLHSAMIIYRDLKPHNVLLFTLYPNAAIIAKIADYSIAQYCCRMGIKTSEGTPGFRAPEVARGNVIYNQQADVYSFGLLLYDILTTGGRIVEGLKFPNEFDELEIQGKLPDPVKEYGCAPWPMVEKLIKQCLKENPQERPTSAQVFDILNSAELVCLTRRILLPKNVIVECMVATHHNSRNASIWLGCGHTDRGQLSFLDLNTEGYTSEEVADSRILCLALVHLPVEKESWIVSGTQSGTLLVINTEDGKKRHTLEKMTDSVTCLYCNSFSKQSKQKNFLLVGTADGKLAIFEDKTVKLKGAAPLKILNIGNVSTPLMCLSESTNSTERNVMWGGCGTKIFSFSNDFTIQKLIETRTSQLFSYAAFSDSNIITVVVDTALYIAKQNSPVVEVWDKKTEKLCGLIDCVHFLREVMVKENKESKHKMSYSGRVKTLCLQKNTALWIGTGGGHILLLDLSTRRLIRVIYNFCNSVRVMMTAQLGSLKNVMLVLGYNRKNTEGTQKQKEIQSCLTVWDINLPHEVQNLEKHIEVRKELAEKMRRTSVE
Exercise: state measured IC50 for each of the compounds provided.
Your answer should be a plain number; it is taken to be in nM.

The reported value for CC1(N2CCN(c3cc4cc(NC(=O)C5CCC5C#N)ncc4cc3Cl)CC2)COCC1F (single isomer, unassigned) [Ex-10.68] in terms of IC50 is 0.0813

In plain terms, CC1(N2CCN(c3cc4cc(NC(=O)C5CC56CCCOC6)ncc4cc3Cl)CC2)COCC1O (single isomer, unassigned) [Ex-1.14] has a documented IC50 of 0.603

Sure, the documented IC50 for Cc1cc2cnc(NC(=O)C3CCOC(C)(C)C3)cc2cc1N1CCN(C2(C)CCOC2)CC1 (single isomer, unassigned) [Ex-10.42] is 0.525

Reported IC50 for N#CC1CCN(c2cc3cc(NC(=O)C4CC4c4cncnc4)ncc3cc2Cl)CC1 (single isomer, unassigned) [Ex-5.17] was 0.0813

Short answer for CC1(N2CCN(c3cc4cc(NC(=O)C5CC56CCCOC6)ncc4cc3Cl)CC2)COCC1O (single isomer, unassigned) [Ex-1.18] : IC50 was 0.724

The compound Cn1ncc(C2CC2C(=O)Nc2cc3cc(N4CCN(C5(C)CCOC5)CC4)c(Cl)cc3cn2)c1C(F)(F)F (single isomer, unassigned) [Ex-10.27] showed IC50 equal to 38
